- measurement protocol: Stability of the compound in simulated intestinal fluid assessed as compound remaining after 2 hrs
- Type: ADME
- condition summary: simulated gi fluid, 2 h
assay readout: Stability

Look up and report measured Stability for this entry: CC(=O)NC1[C@H](Oc2cccc(C#N)c2-c2cccc(NS(C)(=O)=O)c2)O[C@H](CO)[C@H](O)[C@@H]1O (single isomer, unassigned) 100%

Look up and report measured Stability for this entry: CC(=O)N[C@H]1[C@H](Oc2cccc(C)c2-c2cccc(NS(=O)(=O)C3CC3)c2)O[C@H](CO)[C@H](O)[C@@H]1O 100%

Look up and report measured Stability for this entry: CC(=O)N[C@H]1[C@H](Oc2cccc(F)c2-c2cccc(NS(C)(=O)=O)c2)O[C@H](CO)[C@H](O)[C@@H]1O 94%

Look up and report measured Stability for this entry: CC(=O)N[C@H]1[C@H](Oc2cccc(C)c2-c2cccc(NS(C)(=O)=O)c2)O[C@H](CO)[C@H](O)[C@@H]1O 100%

Look up and report measured Stability for this entry: CC(=O)NC1[C@H](Oc2cccc(C(F)(F)F)c2-c2cccc(NS(C)(=O)=O)c2)O[C@H](CO)[C@H](O)[C@@H]1O (single isomer, unassigned) 92%
